System: Petit Mal
procedure-text: Cardiazol shock test
Format: in vivo
measurement-setup: species not given
readout: ED50 (mg/kg)
Numbers only, in mg/kg.

Consider the following illustrative entries.
| molecule | ED50 [mg/kg] |
| --- | --- |
| NS(=O)(=O)c1ccc(N2C(=O)CN(c3ccccc3)C2=O)c(Cl)c1 | 100 |
| NS(=O)(=O)c1ccc(N2CN(C3CCCCC3)CC2=O)c(Cl)c1 | 200 |
| NS(=O)(=O)c1ccc(N2CN(c3ccccc3)CC2=O)c(F)c1 | 50 |

Could you tell me ED50 for each of these molecules? They are listed below.
1. NS(=O)(=O)c1ccc(N2CN(c3ccccc3)CC2=O)c(Br)c1
2. CC1C(=O)N(c2ccc(S(N)(=O)=O)cc2Cl)CN1c1ccccc1 (stereo not drawn)
3. NS(=O)(=O)c1ccc(N2CN(c3ccccc3)CC2=O)c(Cl)c1

1. 50
2. 50
3. 50
